# Target: FcRn (Sino Biological Inc, CT009-H08H)
# Assay explanation: SPR (Biacore X100), FcRn-His captured on anti-His IgG chip, antibody as analyte, steady-state affinity fit; second run
Measurement type: Kd (µM)

[[record]]
substance = "MIL41: a PERJETA sample as prepared by the inventors, which is in consistence with the amino acid sequence of PERJETA (antibody)"
target = "FcRn (Sino Biological Inc, CT009-H08H)"
value_measured = 0.45


Measured values drawn from patent US20180022820A1 for this set.
